- TARGET_UNDER_TEST: T1, β-catenin (UniProt P35222 1-781, limits assumed)
- T1 construct: also called beta-catenin
- T1 sequence (looked up): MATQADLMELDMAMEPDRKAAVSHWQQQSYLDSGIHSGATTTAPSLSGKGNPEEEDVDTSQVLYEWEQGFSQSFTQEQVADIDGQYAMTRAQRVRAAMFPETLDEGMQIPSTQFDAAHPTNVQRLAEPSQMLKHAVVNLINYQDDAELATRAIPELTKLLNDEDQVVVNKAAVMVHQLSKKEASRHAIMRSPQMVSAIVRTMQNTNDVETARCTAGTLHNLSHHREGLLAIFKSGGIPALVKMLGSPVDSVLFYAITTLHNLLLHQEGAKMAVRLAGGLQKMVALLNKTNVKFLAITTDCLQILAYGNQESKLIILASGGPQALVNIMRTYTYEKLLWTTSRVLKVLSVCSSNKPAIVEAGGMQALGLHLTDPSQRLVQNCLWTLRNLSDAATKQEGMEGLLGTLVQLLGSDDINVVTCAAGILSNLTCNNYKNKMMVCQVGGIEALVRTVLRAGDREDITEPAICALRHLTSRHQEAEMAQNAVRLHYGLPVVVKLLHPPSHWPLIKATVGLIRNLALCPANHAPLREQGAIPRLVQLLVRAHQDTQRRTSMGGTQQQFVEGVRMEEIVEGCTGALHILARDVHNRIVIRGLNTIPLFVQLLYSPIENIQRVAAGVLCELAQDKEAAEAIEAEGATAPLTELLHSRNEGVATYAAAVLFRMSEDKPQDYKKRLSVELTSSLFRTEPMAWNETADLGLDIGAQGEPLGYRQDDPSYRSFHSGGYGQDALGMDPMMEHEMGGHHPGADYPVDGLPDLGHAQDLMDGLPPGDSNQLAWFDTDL
- METHOD_DESCRIPTION: ALPHA Screen (BCL9/β-catenin);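 further: bead proximity readout with the polypeptide linked to donor beads and β-catenin fixed on acceptor beads, their binding bringing the beads close enough to emit signal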
*1 amine or outer side, *2 acyl side, *3 side chain or, on linkers, in order; H or OH if unused. Bridges are numbered along the chain shown (N, C = ends). Primed or numbered codes have the meaning given here. [ ]: non-standard residue; d: D form. The star is where a group is joined. peptoid‑Q = (5-amino-5-oxopentyl)glycine, N-substituted glycine, NC(=O)CCCCN(CC(=O)[*:2])[*:1]; NMeQ′ = N-methylglutamine (N-alpha-methyl, stereo named both D and L in the filing); dimethyl = N-terminal dimethyl modification; PEG4″ = PEG4 (tetraethylene glycol) spacer; 2Nal = N[C@@H](Cc1ccc2ccccc2c1)C(=O)O; Palmitoyl = CCCCCCCCCCCCCCCC(=O)*; NMeQ = CN[C@@H](CCC(N)=O)C(=O)O; Cha = N[C@@H](CC1CCCCC1)C(=O)O; AllylGly = C=CC[C@H](N)C(=O)O; NMeL = CN[C@@H](CC(C)C)C(=O)O; Cba = N[C@@H](CC1CCC1)C(=O)O; S5 = C=CCCC[C@](C)(N)C(=O)O
METRIC_NAME: pIC50
pIC50 field: float, defined as -log10 of concentration (mol/L).

# example entries with known answers
>>> value_observed("{Palmitoyl-PEG4″}-HRQRS[Cha][NMeQ′]TLR[S5]IQR[S5][Cha][2Nal]-NH2 (staple 11-15; not fully specified; printed as HRQRS(Cha)(N-methylQ)TLRXaa3IQRXaa6(Cha)(2-Nal)) [SEQ ID NO: 211]")
6.52
>>> value_observed("Ac-[NMeL]QTLR[S5]IQR[S5][Cba][2Nal]-NH2 (staple 6-10; not fully specified (residue 2); printed as (Me-L)(N-MeQ)TLRXIQRX(CBA)(2-Nal)) [SEQ ID NO: 118]")
5.20
>>> value_observed("Ac-RERSLQTLR[S5]IQR[S5][Cba][2Nal]-NH2 (staple 10-14; not fully specified; printed as RERSLQTLRXIQRX(CBA)(2-Nal)) [SEQ ID NO: 13]")
6.07
>>> value_observed("Ac-LQTLR[S5]AQR[S5]A[2Nal]-NH2 (staple 6-10; not fully specified; printed as LQTLRXAQRXA(2-Nal)) [SEQ ID NO: 23]")
4.52
>>> value_observed("dimethyl-L[NMeQ]TLR[S5]IQR[S5][Cba][2Nal]-NH2 (staple 6-10; not fully specified) [SEQ ID NO: 144]")
5.67
>>> value_observed("Ac-HRQRSL[peptoid‑Q]TLR[S5]IQR[S5][Cba][2Nal]-NH2 (staple 11-15) [SEQ ID NO: 169]")
6.48
>>> value_observed("Ac-LQTLR[S5]IQR[S5][AllylGly][2Nal]-NH2 (staple 6-10) [SEQ ID NO: 175]")
5.01
>>> value_observed("Ac-LETLR[S5]IQR[S5][Cba][2Nal]-NH2 (staple 6-10) [SEQ ID NO: 109]")
6.04

Now consider a different binder.
// pIC50 value for Ac-LQTAR[S5]AQR[S5]L[2Nal]-NH2 (staple 6-10; not fully specified; printed as LQTARXAQRXL(2-Nal)) [SEQ ID NO: 22] : 4.94

All values here come from patent US20200262867A1.
